# Assay info: Measurement of log P values by HPLC on reversed phase columns (methods [a] pH 2.3, [b] pH 2.7, [c] pH 7.8)
# Type: physicochemical
# Conditions used: HPLC reversed phase, method [b] (pH 2.7)
Would you kindly list logP for each of these compounds?

// logP lookup, compound = O=C(N[C@@H]1CCC[C@@H]1c1ccc(C(F)(F)F)cc1)c1ncccc1C(F)(F)F (relative stereo) [Example 331] , result: 3.36^[b]

// logP lookup, compound = O=C(NC1CCCC1c1ccccc1Cl)c1ccccc1C(F)(F)F (centres unmarked) [Compound 296] , result: 3.55^[b]

// logP lookup, compound = O=C(NC1CCC1c1ccccc1C(F)(F)F)c1ccccc1C(F)(F)F (centres unmarked) [Compound 434] , result: 3.44^[b]

// logP lookup, compound = O=C(NC1CCC1c1ccccc1C(F)(F)F)c1ccc(Cl)cc1 (centres unmarked) [Example 429] , result: 3.56^[b]

// logP lookup, compound = Cc1nc(C(F)(F)F)c(C(=O)N[C@@H]2CC[C@H]2c2ccc(F)cc2C(F)(F)F)s1 (relative stereo) [Example 530] , result: 3.60^[b]

====

Would you kindly list logP for each of these compounds?
# Assay info: Measurement of log P values by HPLC on reversed phase columns (methods [a] pH 2.3, [b] pH 2.7, [c] pH 7.8)
# Assay type: physicochemical
# Conditions used: HPLC on reversed phase columns, method [b], pH 2.7
# Description: Measurement of log P-Values: Measurement of log P Values was Performed According EEC Directive 79/831 Annex V.A8 by HPLC (High Performance Liquid Chromatography) on reversed phase columns with the following methods: ^[a] […]

// logP lookup, compound = Cn1cc(C(=O)NC2CCC2c2c(Cl)cccc2Cl)c(C(F)F)n1 (stereo not shown) , result: 2.90^[b]

// logP lookup, compound = CCCOc1ccccc1C(=O)N[C@@H]1CCC[C@@H]1c1ccc(F)c(F)c1 (relative stereo) , result: 4.19^[b]

// logP lookup, compound = O=C(NC1CCC1c1c(Cl)cccc1Cl)c1cccnc1Cl (stereo not shown) , result: 2.79^[b]

// logP lookup, compound = O=C(NC1CC1c1ccc(Cl)cc1)c1ccc(Cl)nc1 (stereo not shown) , result: 3.53^[b]

// logP lookup, compound = O=C(N[C@@H]1CCC[C@@H]1c1ccc(F)c(F)c1)c1ccccc1OC(F)(F)F (relative stereo) , result: 3.76^[b]

// logP lookup, compound = O=C(N[C@@H]1CCC[C@@H]1c1ccc(F)c(F)c1)c1ccccc1C(F)(F)F (relative stereo) , result: 3.50^[b]

// logP lookup, compound = Cc1nc(C(F)(F)F)c(C(=O)NC2CC2c2ccccc2)s1 (stereo not shown) , result: 2.66^[b]

// logP lookup, compound = O=C(N[C@@H]1CCC[C@H]1c1ccc(F)c(F)c1)c1ccccc1F (relative stereo) , result: 3.35^[b]

// logP lookup, compound = Cc1ccc(C(=O)N[C@@H]2CCC[C@@H]2c2ccc(F)c(F)c2)c(Cl)n1 (relative stereo) , result: 2.86^[b]

// logP lookup, compound = O=C(N[C@@H]1CCC[C@@H]1c1ccc(F)c(F)c1)c1ccsc1I (relative stereo) , result: 3.29^[b]

// logP lookup, compound = Cn1cc(C(=O)N[C@@H]2CCC[C@@H]2c2ccc(F)c(F)c2)c(I)n1 (relative stereo) , result: 2.75^[b]

// logP lookup, compound = O=C(N[C@@H]1CCC[C@H]1c1ccc(F)c(F)c1)c1ccncc1F (relative stereo) , result: 2.62^[b]

// logP lookup, compound = Cc1nn(C)c(F)c1C(=O)N[C@@H]1C[C@H]1c1ccccc1Cl (relative stereo) , result: 2.40^[b]

// logP lookup, compound = O=C(NC1CCC1c1ccc(Cl)cc1C(F)(F)F)c1cccnc1C(F)(F)F (stereo not shown) [Example 720] , result: 3.60^[b]

// logP lookup, compound = COc1cscc1C(=O)N[C@@H]1CCC[C@@H]1c1ccc(F)c(F)c1 (relative stereo) , result: 3.29^[b]

// logP lookup, compound = O=C(N[C@@H]1CCC[C@@H]1c1ccc(F)c(F)c1)c1c(Cl)ccnc1Cl (relative stereo) , result: 3.02^[b]

// logP lookup, compound = N#Cc1ncccc1C(=O)N[C@@H]1CCC[C@H]1c1ccc(F)c(F)c1 (relative stereo) , result: 3.31^[b]

// logP lookup, compound = O=C(N[C@@H]1CCC[C@@H]1c1ccc(F)c(F)c1)c1ccc(C(F)(F)F)nc1Cl (relative stereo) , result: 3.68^[b]

// logP lookup, compound = CCc1ccccc1C(=O)N[C@@H]1CCC[C@@H]1c1ccc(F)c(F)c1 (relative stereo) , result: 3.75^[b]

// logP lookup, compound = O=C(NC1CCC1c1ccc(Cl)cc1C(F)(F)F)c1cccnc1C(F)(F)F (stereo not shown) [Example 721] , result: 3.36^[b]

// logP lookup, compound = Cn1cc(C(=O)NC2CCC2c2ccc(Cl)cc2C(F)(F)F)c(C(F)F)n1 (stereo not shown) [Example 718] , result: 3.41^[b]

// logP lookup, compound = CCOc1ccccc1C(=O)N[C@@H]1CCC[C@@H]1c1ccc(F)c(F)c1 (relative stereo) , result: 3.80^[b]

// logP lookup, compound = Cc1nn(C)c(F)c1C(=O)NC1CC1c1ccccc1 (stereo not shown) , result: 2.00^[b]

// logP lookup, compound = Cc1nocc1C(=O)N[C@@H]1CCC[C@@H]1c1ccc(F)c(F)c1 (relative stereo) , result: 2.69^[b]

// logP lookup, compound = O=C(N[C@@H]1CCC[C@@H]1c1ccc(F)c(F)c1)c1ccccc1Br (relative stereo) , result: 3.35^[b]

# credit: patent US20160075653A1
